measurement.description: recombinant barcode read abundance after kanamycin selection (control-corrected) (log10(CPM+1)); higher = more efficient recombination; sequences stand for … in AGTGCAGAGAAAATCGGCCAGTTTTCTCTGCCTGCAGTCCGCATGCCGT…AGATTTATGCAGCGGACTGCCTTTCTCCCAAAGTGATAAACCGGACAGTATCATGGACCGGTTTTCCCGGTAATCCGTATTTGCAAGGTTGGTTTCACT; site = the 11-nt target
Label scheme for recombinant barcode read abundance (log10): lower than 0.1 is false, 0.1 and above is true.

| biopolymer.sequence | label |
| --- | --- |
| TGCCTGCCTTGGGTTCTAACCTGTTGCAG (site TGCCTGCCTCT) | false |
| TTCAAGCCTTGGGTTCTAACCTGTTGCCT (site TTCAAGGCTAG) | false |
| ATCGCTCCTTGGGTTCTAACCTGTTGCCT (site ACCGCTCCTAG) | true |
| TGGCAGGCTTGGGTTCTAACCTGTTGCCT (site TGGCAGCCTAG) | false |
| GACCAGCCTTGGGTTCTAACCTGTTGCTT (site GACCAGCCTAC) | true |

====

Each entry below lists one item and its recorded recombinant UMI read abundance (log10) value.
measurement.description: recombinant UMI read abundance after kanamycin selection (control-corrected) (log10(CPM+1)); higher = more efficient recombination; extreme values may be limits of the assay; sequences stand for … in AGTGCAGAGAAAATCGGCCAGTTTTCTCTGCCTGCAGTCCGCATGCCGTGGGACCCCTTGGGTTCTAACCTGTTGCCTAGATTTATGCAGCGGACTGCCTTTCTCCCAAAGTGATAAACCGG…AGGTTGGTTTCACT; site = the 11-nt donor
endpoint: recombinant UMI read abundance (log10)

| biopolymer.sequence | value.measured |
| --- | --- |
| TCGGTTACATGGACCGGTTTTCCCGGTAATCCGTATTTGTT (site TCGGTTACTAA) | 0.835 |
| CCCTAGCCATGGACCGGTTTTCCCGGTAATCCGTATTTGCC (site ACCTAGCCTGG) | 0 |
| CTCCCTGCATGGACCGGTTTTCCCGGTAATCCGTATTTGGC (site CTCCCTGCTGC) | 0 |
| ACGAAGTCATGGACCGGTTTTCCCGGTAATCCGTATTTGCA (site ACGAAGTCTTG) | 3.09 |
| GGGACATCATGGACCGGTTTTCCCGGTAATCCGTATTTGCT (site TGGACATCTAG) | 0 |
| GATTGGACATGGACCGGTTTTCCCGGTAATCCGTATTTGAC (site GATTGGACTGT) | 0.659 |
| GTGAGAACATGGACCGGTTTTCCCGGTAATCCGTATTTGCT (site GTGAGAACTAG) | 2.25 |
| CGTCGACCATGGACCGGTTTTCCCGGTAATCCGTATTTGAT (site CGTCGACCTAT) | 0.0862 |
| CATCTCTCATGGACCGGTTTTCCCGGTAATCCGTATTTGTA (site CTTCTCTCTTA) | 1.98 |

====

measurement.description: recombinant UMI read abundance after kanamycin selection (control-corrected) (log10(CPM+1)); higher = more efficient recombination; extreme values may be limits of the assay; sequences stand for … in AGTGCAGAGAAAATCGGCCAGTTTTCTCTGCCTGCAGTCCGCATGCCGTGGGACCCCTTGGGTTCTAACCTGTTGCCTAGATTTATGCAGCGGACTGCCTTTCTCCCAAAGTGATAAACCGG…AGGTTGGTTTCACT; site = the 11-nt donor
Classify by measured recombinant UMI read abundance (log10): fulfilled if it is equal to or exceeds 0.8, not fulfilled if it is smaller.

| biopolymer.sequence | label |
| --- | --- |
| AATGTAACATGGACCGGTTTTCCCGGTAATCCGTATTTGCT (site AATATAACTAG) | fulfilled |
| TCCAGCACATGGACCGGTTTTCCCGGTAATCCGTATTTGTG (site TCCAGCACTCA) | not fulfilled |
| CGATCGACATGGACCGGTTTTCCCGGTAATCCGTATTTGGT (site CGATCGACTAC) | not fulfilled |
| TAATGAGCATGGACCGGTTTTCCCGGTAATCCGTATTTGGC (site TAATGAGCTAC) | not fulfilled |
| ACATACACATGGACCGGTTTTCCCGGTAATCCGTATTTGAG (site ACATACACTCT) | fulfilled |
| TAGCACGCATGGACCGGTTTTCCCGGTAATCCGTATTTGGG (site GAGCACGCTCC) | not fulfilled |
| TGCACTGCATGGACCGGTTTTCCCGGTAATCCGTATTTGCA (site TGCACTGCTTG) | not fulfilled |
| TGGTTATCATGGACCGGTTTTCCCGGTAATCCGTATTTGTC (site TGGTTATCTGA) | fulfilled |
